Experimental target: human MCHR1 (Homo sapiens, UniProt Q99705)
Construct: expressed in transfected cells; host or cells: CHO cell clone 57 (described in WO01/82925); membrane fraction
Sequence (Q99705 whole entry): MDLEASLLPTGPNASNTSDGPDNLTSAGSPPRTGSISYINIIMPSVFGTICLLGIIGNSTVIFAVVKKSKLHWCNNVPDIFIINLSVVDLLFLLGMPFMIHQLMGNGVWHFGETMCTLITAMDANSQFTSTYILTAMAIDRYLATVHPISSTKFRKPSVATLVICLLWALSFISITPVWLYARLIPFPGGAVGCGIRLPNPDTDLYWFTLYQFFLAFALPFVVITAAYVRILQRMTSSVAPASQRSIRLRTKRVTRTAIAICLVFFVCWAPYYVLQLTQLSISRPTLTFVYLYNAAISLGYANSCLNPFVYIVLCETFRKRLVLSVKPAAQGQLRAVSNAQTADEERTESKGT
Assay info: MCH receptor 1 antagonistic activity, Ca2+ mobilization assay
Assay type: cell-based
Condition context: test compound 0.1 μM; human MCHR1-expressing CHO cells (clone #4); MCH(4-19) 2 nM; read-out: Inhibition rate % (0.1 μM)
Readout kind: inhibition at 0.1 µM (%)

// below: answered compounds
| Compound | Experimental target | inhibition at 0.1 µM (%) |
| --- | --- | --- |
| COc1cc(-n2ccc3oc(-c4ccc(Cl)cc4)cc3c2=O)ccc1OCC1(C#N)CC1 | human MCHR1 (Homo sapiens, UniProt Q99705) | 100 |
| COc1cc(-n2cnc3oc(-c4ccc(Cl)cc4)cc3c2=O)ccc1OCC1(C#N)CC1 | human MCHR1 (Homo sapiens, UniProt Q99705) | 37 |
| COc1cc(-n2ccc3oc(-c4ccc(Cl)cc4)cc3c2=O)cnc1OCC1(C#N)CC1 | human MCHR1 (Homo sapiens, UniProt Q99705) | 72 |
| COc1cc(-n2ccc3oc(-c4ccc(Cl)cn4)cc3c2=O)ccc1OCC1(C#N)CC1 | human MCHR1 (Homo sapiens, UniProt Q99705) | 88 |
| COc1cc(-n2ccc3oc(-c4ccc(Cl)cc4)cc3c2=O)ccc1OCC1CCOC1 (centres unmarked) | human MCHR1 (Homo sapiens, UniProt Q99705) | 84 |

I. COc1cc(-n2ccc3oc(-c4ccc(Cl)cc4)cc3c2=O)ccc1OCC1CC1(F)F (centres unmarked)
II. COc1ccc(-n2ccc3oc(-c4ccc(Cl)cc4)cc3c2=O)cc1OC
Identify the entry with the smaller inhibition at 0.1 µM: I or II . // return label of chosen record I
(I: 45%, II: 94%)

A. COc1cc(-n2ccc3oc(-c4ccc(Cl)cc4)cc3c2=O)ccc1OCC(C)(C)O
B. COc1cc(-n2ccc3oc(-c4ccc(Cl)s4)cc3c2=O)ccc1OCC1(C#N)CC1
C. Cc1cc(-n2ccc3oc(-c4ccc(Cl)cc4)cc3c2=O)ccc1OCC1(C#N)CC1
# rank by inhibition at 0.1 µM, ascending (min first) Form field (ranking): labels in requested order. C, B, A
(C: 34%, B: 64%, A: 106%)
